# study_target: Probable nicotinate-nucleotide adenylyltransferase (Staphylococcus aureus (strain N315), UniProt P65502);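 also: confirmatory retest of primary uHTS inhibitor hits against NadD over a range of doses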
# Sequence (P65502 whole entry): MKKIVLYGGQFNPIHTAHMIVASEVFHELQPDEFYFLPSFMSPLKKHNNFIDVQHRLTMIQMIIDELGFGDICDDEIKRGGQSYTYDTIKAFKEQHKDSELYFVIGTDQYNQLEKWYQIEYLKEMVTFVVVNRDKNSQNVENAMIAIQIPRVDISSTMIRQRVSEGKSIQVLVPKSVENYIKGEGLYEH
# Format: functional, Staphylococcus aureus subsp. aureus N315
Active and inactive are the calls of the source.
Give IC50 for every item shown.

Below: 5 molecules and their reported IC50.
> print(dat)
                                   molecule       measurement
1  CCOc1ccc(N2C(=O)/C(=C\c3ccc(O)c(OC)c3)S(=O)(=O)C2c2cccc([N+](=O)[O-])c2)cc1 (stereo unspecified)  9.57 µM (active)
2  Cc1ccc(-c2cc(C(=O)Nc3ccc(S(=O)(=O)Nc4nccs4)cc3)c3ccccc3n2)c(C)c1  5.29 µM (active)
3  COC1C(OC(=O)c2ccc(C)[nH]2)C(O)C(Oc2ccc3c(O)c(NC(=O)c4ccc(O)c(CC=C(C)C)c4)c(=O)oc3c2Cl)OC1(C)C (stereo unspecified)   2.1 µM (active)
4  Cc1ccc2nc(NNC(=O)c3ccc(S(=O)(=O)N4CCc5ccccc5C4)cc3)sc2c1   9.9 µM (active)
5  Cn1c(SCC(=O)N2c3ccccc3CCc3ccccc32)nnc1-c1cc2ccccc2cc1O  7.15 µM (active)

Note: attention shifts to another entry.
# return recorded IC50 for input `O=C(O)Cc1sc(N/N=C\c2ccccc2)nc1-c1ccccc1` 9.86 µM (active)

----------
# Test system: Streptococcus sp. 'group A'
# protocol_details: growth inhibition of control SK(-) GAS strain, dose response, counter-screen for streptokinase expression inhibitor project, luminescence, kanamycin, BacTiterGlo, confirmation (AID 1900)
# Format: functional, organism-based
The source made the active and inactive calls.
readout_kind: EC50

Below: 5 molecules and their reported EC50.
> print(dat)
                                   molecule                 study.target  readout.kind       measurement
1         COc1ccc(CSCCN=C(S)Nc2ccccc2)cc1Cl  Streptococcus sp. 'group A'          EC50  18.5 µM (active)
2  CC1CCCN(S(=O)(=O)c2ccc(C(=O)Nc3nnc(C4CC4)o3)cc2)C1 (stereo unspecified)  Streptococcus sp. 'group A'          EC50  4.14 µM (active)
3  CCCCCn1c(=O)c(C(=O)Nc2cnccn2)c(O)c2ccccc21  Streptococcus sp. 'group A'          EC50  3.24 µM (active)
4  CCCCCCCn1c(=O)c(C(=O)Nc2cnccn2)c(O)c2ccccc21  Streptococcus sp. 'group A'          EC50  2.88 µM (active)
5     COC(=O)c1c[nH]nc1N=C(S)Nc1ccc(C)cc1Cl  Streptococcus sp. 'group A'          EC50  51.6 µM (active)

# return recorded EC50 for input COC(C(=O)Nc1ccnn1C1CCN(Cc2nccs2)CC1)c1ccccc1 (stereo unspecified) > 150 µM (not active)

----------
Give AC50 for every item shown.
# study_target: FAD-linked sulfhydryl oxidase ALR (Homo sapiens, UniProt P55789)
# Sequence (P55789 whole entry): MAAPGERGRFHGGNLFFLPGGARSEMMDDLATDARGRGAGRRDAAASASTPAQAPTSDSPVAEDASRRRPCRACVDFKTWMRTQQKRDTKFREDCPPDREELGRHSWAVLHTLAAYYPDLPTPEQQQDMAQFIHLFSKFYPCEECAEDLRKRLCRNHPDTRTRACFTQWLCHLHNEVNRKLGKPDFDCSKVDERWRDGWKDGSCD
# protocol_details: inhibitors of human ALR sulfhydryl oxidase, dose response, biochemical, H2O2 detection, luminescence, cherry-pick (AID 493248)
Calls of active or inactive are those of the source.

> print(dat)
                       compound       measurement
1  N#Cc1c2n(c3c(S)ncnc13)CCCCC2  1650 nM (active)

The following compounds each have a reported value; give each one's AC50.
1. COc1ccccc1-c1n[nH]c(=S)n1-c1ccccc1
2. COc1cc(/C=N\NC(=O)CNC(=O)c2cccc([N+](=O)[O-])c2)ccc1O

["58 nM (active)", "2410 nM (active)"]
